test: pKa of the drug substance freebase; assay type: physicochemical
Measured property: pKa

Query :: What does the data say about its pKa? Entry: C=CC(=O)Nc1cccc(Oc2nc(Nc3ccc(N(C)[C@H]4CCN(C(C)=O)C4)cc3)ncc2OC)c1 [Compound A]
Result :: ~5.3
